# systemUnderTest: MARK1 (Homo sapiens, UniProt Q9P0L2)
# Sequence (Q9P0L2 whole entry): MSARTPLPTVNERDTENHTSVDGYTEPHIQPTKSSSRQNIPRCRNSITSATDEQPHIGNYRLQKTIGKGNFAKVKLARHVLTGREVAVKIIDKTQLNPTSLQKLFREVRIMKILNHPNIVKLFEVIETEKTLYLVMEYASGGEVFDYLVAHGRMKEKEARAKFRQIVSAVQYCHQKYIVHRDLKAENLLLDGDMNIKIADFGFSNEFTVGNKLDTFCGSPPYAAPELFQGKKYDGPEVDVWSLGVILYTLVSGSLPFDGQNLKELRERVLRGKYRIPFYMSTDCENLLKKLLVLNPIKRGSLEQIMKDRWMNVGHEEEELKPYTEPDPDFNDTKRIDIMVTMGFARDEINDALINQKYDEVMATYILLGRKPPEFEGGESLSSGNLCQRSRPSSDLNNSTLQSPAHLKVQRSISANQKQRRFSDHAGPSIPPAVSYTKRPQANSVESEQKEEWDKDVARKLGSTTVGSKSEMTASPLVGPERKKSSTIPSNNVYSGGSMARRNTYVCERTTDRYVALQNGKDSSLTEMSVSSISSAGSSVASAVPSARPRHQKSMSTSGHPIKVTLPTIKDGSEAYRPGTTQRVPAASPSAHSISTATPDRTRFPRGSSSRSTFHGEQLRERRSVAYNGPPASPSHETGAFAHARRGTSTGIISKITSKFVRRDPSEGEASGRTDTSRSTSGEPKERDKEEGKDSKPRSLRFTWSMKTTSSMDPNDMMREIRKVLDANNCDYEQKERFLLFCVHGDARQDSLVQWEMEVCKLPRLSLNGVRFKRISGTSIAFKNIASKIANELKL
observationType: pIC50
// pIC50 is dimensionless: -log10 of concentration (M)

| smilesRepresentation | experimentalResult |
| --- | --- |
| O=C(Nc1c[nH]nc1-c1nc2ccc(CN3CCOCC3)cc2[nH]1)NC1CC1 | 6.73 |
| CC[C@@H]1CN(C(=O)NCC(F)(F)F)C[C@@H]1c1cnc2cnc3[nH]ccc3n12 | 6.49 |
| CCS(=O)(=O)N1CC(CC#N)(n2cc(-c3ncnc4[nH]ccc34)cn2)C1 | 6.78 |

// next entry
The compound `CN1CCN(c2ccc(Nc3ncc4cc(C#N)c(=O)n(C5CCCC5)c4n3)cc2)CC1` , when measured on MARK1 (Homo sapiens, UniProt Q9P0L2), yielded pIC50 of 6.66

====

The following molecules are listed with their measured Active (Measured) values.
# systemUnderTest: MARK1 (Homo sapiens, UniProt Q9P0L2)
# procedureText: MARK1 inhibition, IC50 determination (dose-response) using Z'-LYTE assay
# Assay type: biochemical
# testParameters: hits of the initial screen followed up with dose-response curves; 1 = true MARK1 inhibitor
Format: numeric value only, no unit, no commentary.

Use these answered entries as a reference point.
| molecule | systemUnderTest | experimentalResult |
| --- | --- | --- |
| CCS(=O)(=O)N1CC(CC#N)(n2cc(-c3ncnc4[nH]ccc34)cn2)C1 | MARK1 (Homo sapiens, UniProt Q9P0L2) | 1 |
| CN1CCN(c2ccc(Nc3ncc4cc(C#N)c(=O)n(C5CCCC5)c4n3)cc2)CC1 | MARK1 (Homo sapiens, UniProt Q9P0L2) | 1 |
| COc1cc(Nc2c(C#N)cnc3cc(OCCCN4CCN(C)CC4)c(OC)cc23)c(Cl)cc1Cl | MARK1 (Homo sapiens, UniProt Q9P0L2) | 0 |
| Cc1cc(Nc2ncc(Cl)c(Nc3ccccc3S(=O)(=O)C(C)C)n2)c(OC(C)C)cc1C1CCNCC1 | MARK1 (Homo sapiens, UniProt Q9P0L2) | 0 |
| Cc1cc(C(C#N)c2ccc(Cl)cc2)c(Cl)cc1NC(=O)c1cc(I)cc(I)c1O (stereo not shown) | MARK1 (Homo sapiens, UniProt Q9P0L2) | 0 |
| C[C@@H](Oc1cc(-c2cnn(C3CCNCC3)c2)cnc1N)c1c(Cl)ccc(F)c1Cl | MARK1 (Homo sapiens, UniProt Q9P0L2) | 0 |

Form: item `CC[C@@H]1CN(C(=O)NCC(F)(F)F)C[C@@H]1c1cnc2cnc3[nH]ccc3n12` ; test system MARK1 (Homo sapiens, UniProt Q9P0L2); Active (Measured): 1

====

Listed here are molecules together with their documented Active (Measured).
# systemUnderTest: MARK1 (Homo sapiens)
# procedureText: MARK1 inhibition, IC50 determination (dose-response) using Z'-LYTE assay
# Assay type: biochemical
# testParameters: hits of the initial screen followed up with dose-response curves; 1 = true MARK1 inhibitor
Counter-ions that a name gives are not always drawn.
Response field accepts a number only; no unit should be typed.

Below, each entry is followed by its recorded Active (Measured) result.
| molecule | observationType | experimentalResult |
| --- | --- | --- |
| CCCCCCCCc1ccc(CCC(N)(CO)CO)cc1 | Active (Measured) | 0 |
| O=C(Nc1c[nH]nc1-c1nc2ccc(CN3CCOCC3)cc2[nH]1)NC1CC1 | Active (Measured) | 1 |
| COc1cc(O)c2c(c1)oc(=O)c1c3cc(O)c(O)cc3oc21 | Active (Measured) | 0 |
| CC(C)(C)NC[C@H](O)COc1cccc2c1CCCC2=O.Cl [Levobunolol (hydrochloride)] | Active (Measured) | 0 |

Now consider the entry below.
Recorded result, C[C@@H]1CCN(C(=O)CC#N)C[C@@H]1N(C)c1ncnc2[nH]ccc12 [Tofacitinib citrate] , Active (Measured): 1
